- TARGET_DESC: human RET on cells (MCF7/SRE-Luc; HEK293/hGFRα3/hRET/SRE-Luc; HEK293/hGFRα1/hRET/SRE-Luc) (human), P07949
- PROTOCOL_DETAILS: cell-based or functional assay
Listed below: 293/hGFRα3/hRET SRE-luc % Blocking values for each entry.
Your answer is read as %, so omit the unit and give the number.

BINDER	NUMERIC_VALUE
H4H8083P (antibody, human IgG4, V domains shown) VH: QVQLVESGGGVVQPGRSLRLSCAASGFTFNNYVMHWVRQAPGKGLEWVALIWYDGSNKYYADSVKGRFTISRDNSKNALNLQMNSLRAEDTAVYFCARVSIAARNYYYGGLDVWGQGTTVTVSS VL: EIVLTQSPGTLSLSPGERATLSCRASQSVSSTYLAWYQQKPGQAPRLLIYGASSRATGIPDRFSGSGSGTDFTLTISRLEPEDFAVYYCQHYGGSPLTFGGGTKVEIK	81

Measured 293/hGFRα3/hRET SRE-luc % Blocking of H4H8087P (antibody, human IgG4, V domains shown) VH: QVQLVESGGGVVQPGRSLRLSCAASGFSFSSYGMHWVRQAPGKGLEWVAVMWYDGSNEYYADSVKGRFIISRDNSKSTLYLEMNSLRAEDTALYYCAREDWDEGYYYGMDVWGQGTTVTVSS VL: DIQMTQSPSSLFASVGDRVTITCRASQDIRYDLGWYQQKPGKAPKRLIYASSILESGVPSRFSGSGSGTEYTLTISTLQSEDFAIYYCLQHNSFPWTFGQGTKVEIK : 100
